Entries and their measured concentration at 24 h follow.
Assay: Drug uptake in Wistar Han rat plasma 10 mg/kg, po measured after 24 hrs mins by LC-MS/MS analysis
Assay type: ADME, organism-based
The response must be a number in nM with no trailing unit.

A selection of reference data follows.
1. CCC(=O)CCCCC[C@H](NC(=O)[C@H]1CC12CCN(CC)CC2)c1ncc(-c2cc3ccc(C)nc3cc2OC)o1	7.2
2. CCC(=O)CCCCC[C@H](NC(=O)[C@H]1CC12CCN(CC)CC2)c1ncc(-c2cc3ccc(C)nc3cc2OC)[nH]1	3.2
3. CCC(=O)CCCCC[C@H](NC(=O)[C@H]1CC12CCN(C)CC2)c1ncc(-c2cc3ccc(C)nc3cc2OC)[nH]1	8.9
4. CCC(=O)CCCCC[C@H](NC(=O)[C@H]1CC12CCN(C)CC2)c1ncc(-c2cc3cccnc3cc2OC)[nH]1	1
5. CCC(=O)CCCCC[C@H](NC(=O)[C@H]1CC12CCN(CC)CC2)c1ncc(-c2cc3cn(C)nc3cc2OC)o1	3.6

Q: Consider the molecule CCC(=O)CCCCC[C@H](NC(=O)[C@H]1CC12CCN(C(C)C)CC2)c1ncc(-c2cc3ccc(C)nc3cc2OC)[nH]1 and give its measured concentration at 24 h.
Result: 1

Q: Next entry: CCC(=O)CCCCC[C@H](NC(=O)[C@H]1CC12CCN(C)CC2)c1ncc(-c2cc3ccc(C)nc3cc2OC)o1
Result: 28
